Recorded values, source ChEMBL document CHEMBL1201862.

- Tested on: XF498
- assay: NCI tumour cell line growth inhibition, 48 h
Active and inactive are the calls of the source. Cut-off read from the data, not from the text of the source: active = GI50 up to about 1.1 µM and inactive = higher.
Respond only with the outcome that fits, drawn from active, inactive

As a guide, the following entries are already answered.
compound | classification
CCN(CC)CC1c2ccccc2C(CNc2ccccc2)N1C (stereo unspecified) | inactive
O.O=C([O-])c1ccccc1Nc1ccccc1C(=O)[O-].[Zn+2] | inactive
Cc1c2c(cc3c1[nH]c1ccccc13)C=NCC2 | inactive

Hello, I am checking results. What call was entered for CNC(=O)N(CCCC(NC(C)=O)C(=O)NCc1ccccc1)Cc1ccccc1 (stereo unspecified) ?
inactive

Field: outcome | Entry: Cc1ccc(C(=O)O)cc1NC(=O)c1cc(/C=C/c2ccccc2)[nH]c(=S)n1
inactive

Could you please tell me the result logged for C=C1C(=O)OC2C=C(CCC(C)=O)C(C)C(OC(C)=O)CC12 (stereo unspecified) in this assay?
inactive

Identify the outcome logged in this assay for the compound shown: O=C(O)/C=C\C(=O)Nc1ccc(S(=O)(=O)c2ccc(NC(=O)/C=C\C(=O)O)cc2)cc1
inactive

What did the test return for O=C(NC(=O)c1ccccc1[N+](=O)[O-])Nc1ccc(Oc2ncc(Cl)cn2)c([N+](=O)[O-])c1 ?
active

Would you mind telling me which call this test gave NNC(=O)C(=O)N/N=C1\CCCC1C(=O)CCC(=O)Nc1cccc(Cl)c1 (stereo unspecified) ?
inactive

Could you please tell me the result logged for Cc1oc2c(C)c3oc(=O)cc(C)c3cc2c1CNC(=O)[C@@H]1OCCOCCOCCOCCOCCOC1C(=O)O (stereo partly specified) in this assay?
inactive

I would be grateful if you could indicate the recorded call for Cc1cc(=O)oc2c1cc(OCC(=O)OCCN1CCCCC1)c1occ(C)c12 .
inactive

// outcome(item) with item = CC1(C)C(O)OC(O)C1(C)C (stereo unspecified)
inactive

GET /call?item= COc1ccc(-c2oc3cc(O)c(OC)c(O)c3c(=O)c2O)cc1 returns the recorded outcome of this test.
inactive

Field: outcome | Entry: c1cc(-c2cn3ccsc3n2)ccn1
inactive

For this compound, state the assay outcome: O=C1C(=Cc2cccs2)C(=O)N(CCc2ccccc2)S(=O)(=O)N1CCc1ccccc1
inactive

* * *

- Tested on: DMS-273
- assay: NCI tumour cell line growth inhibition, 48 h
Activity calls are given as the source filed them. Cut-off read from the data, not from the text of the source: active = GI50 up to about 1.1 µM and inactive = higher.
Just give me one of these, please: active, inactive

Take a look at these entries with their results.
compound | classification
Cc1c2c(cc3c1[nH]c1ccccc13)C=NCC2 | inactive
CC(=O)OC[C@@H]1[C@H]2CC(=O)O[C@H]2C[C@H]1OC(C)=O | inactive
COc1ccc(-c2cc(C(=O)Nc3ccc(C)c(C)c3)nc(NC#N)n2)cc1 | inactive
CC1(C)CCC(=O)c2c(O)ccc(O)c21 | inactive
CN(CCO)c1nc(=O)c2c(n1C1OC(CO)C(O)C(O)C1O)CCCC2 (stereo not given) | inactive

What outcome does the record of this test show for COc1ccc(C(c2ccc(C(C)C)cc(OC)c2=O)c2ccc(C(C)C)cc(OC)c2=O)cc1 ?
inactive

Dear all, I need the recorded test outcome for COC(=O)C(C(=O)C(=O)Nc1ccccc1C)c1nc2ccc([N+](=O)[O-])cc2nc1O (stereo not given) , thank you.
inactive

Status in this test for O=C(O)C12C3C4C1C1C2C3C41I (stereo not given) ?
inactive

Hi team, can someone confirm the assay call for CCC1(OC(C)=O)C(=O)OCc2c1cc1n(c2=O)Cc2cc3ccccc3nc2-1 (stereo not given) ?
active

Would you mind telling me which call this test gave Cc1ccc(S(=O)(=O)C(C#N)c2nc3ccccc3nc2-n2cccn2)cc1 (stereo not given) ?
inactive

* * *

Overview of reported GI50 across a group of molecules:
- Test system: MDA-MB-435
- assay: NCI tumour cell line growth inhibition, 48 h
Calls of active or inactive are those of the source. No stated cut-off is given here; in the data, active = GI50 up to about 1.1 µM and inactive = higher.

Would you please look over these solved cases?
molecule | GI50
CCCNc1c(Cl)cc(Cl)c2[nH]c3ccccc3c(=O)c12 | 39.9 µM (inactive)
COc1cccc(C2c3cc4c(cc3OC(NNc3ccccc3)C2C)OCO4)c1OC (configuration not stated) | 3.04 µM (inactive)
Oc1cccnc1CN1CCCCC1 | > 100 µM (inactive)

Data point: COc1ccc(-c2oc3cc(O)c(OC)c(O)c3c(=O)c2O)cc1 ; GI50 = 17.9 µM (inactive)

molecule CC(=O)NNc1nc(C)c(C(/C=C/c2ccc3c(c2)OCO3)=N/NC(=O)c2ccncc2)s1 , GI50 observed: > 100 µM (inactive)

Input COc1cc2c(c(OC)c1OC)-c1ccc(=O)c(O)cc1[C@@H](NC(C)=O)CC2 . Output GI50: 18.4 µM (inactive)

The recorded GI50 for CCOC(=O)C(=Cc1[nH]c2ccccc2c1-c1c[nH]c2ccccc12)C(=O)OCC is 5.96 µM (inactive)

Reported GI50 of Cc1sc2[nH]c(=O)oc(=O)c2c1C : 39.9 µM (inactive)

* * *

- System: SK-MEL-28
- assay: NCI tumour cell line growth inhibition, 48 h
Active and inactive are the calls of the source. Cut-off read from the data, not from the text of the source: active = GI50 up to about 1.1 µM and inactive = higher.
Mark one answer only. Choices: label 1 = active, label 0 = inactive

molecule | target or system | classification
COC(=O)c1c(O)c2c(c3c1OC(C)(C)CC3)OC(C)(C)CC2 | SK-MEL-28 | label 0

Recorded test call requested for CCC(C)N1CN(c2ccccc2)C2(CCN(CCCSc3ccc(F)cc3)CC2)C1=O (stereo unspecified)
label 0

Would you mind telling me which call this test gave CC(/C=C/C(=O)NO)=C\C(C)C(=O)c1ccc(N(C)C)cc1 (stereo unspecified) ?
label 1

How did this test come out for N#Cc1c(N2CCCC2)ncn(Cc2ccccc2)c1=O ?
label 0

How was C=C1C(=O)OC2C=C(CCC(C)=O)C(C)C(OC(C)=O)CC12 (stereo unspecified) classified in this test?
label 0

Hi, do you know how Cc1ccc(/C=N/NS(=O)(=O)c2ccccc2)cc1 came out in this test?
label 0

I'd appreciate the recorded outcome for CNC(=O)N(CCCC(NC(C)=O)C(=O)NCc1ccccc1)Cc1ccccc1 (stereo unspecified) from this test.
label 0

What outcome does the record of this test show for CC(C)(CN)CN ?
label 0

Would you mind telling me which call this test gave CC(=O)O[C@H]1C(=O)[C@@]2(C)[C@H]([C@H](OC(=O)c3ccccc3)[C@]3(O)C[C@H](OC(=O)[C@H](O)[C@@H](NC(=O)c4ccccc4)C4CCCCC4)C(C)=C1C3(C)C)[C@]1(OC(C)=O)CO[C@@H]1C[C@@H]2O ?
label 0

Please let me know the test result on file for OCCSCc1cc(Cl)cc(Cl)c1O .
label 0

Please share the test call associated with Cc1ccc([N+](=O)[O-])cc1NC(=O)C(=O)C1CCC2=C(Sc3ccccc3N2)C1=O (stereo unspecified) .
label 0

Per the records of this test, what outcome belongs to Cn1c(=O)n2n(c1=O)C(S(=O)(=O)c1ccccc1)C2 (stereo unspecified) ?
label 0

Returns: the outcome recorded for CC1(C)OC(C[C@]2(C#N)C[C@H](CCl)OC(C)(C)O2)C[C@@H](C[C@]2(C#N)C[C@H](CCl)OC(C)(C)O2)O1 (stereo partly specified) in this assay.
label 0

What call does the record list for CC1(C)CNCC(C)(OCc2ccccc2)C(=O)NC(C)(C)CNCC(C)(OCc2ccccc2)C(=O)N1 (stereo unspecified) ?
label 0

Called result for c1ccc([S+](c2ccccc2)c2ccc(Sc3ccc([S+](c4ccccc4)c4ccccc4)cc3)cc2)cc1
label 0

Given CN(C)c1ccc(/C=C(\NC(=O)c2ccccc2)C(=O)NCC(=O)O)cc1 , state the outcome it received in this test.
label 0

Assay outcome for CCN1CCN=C2c3cc(OC)ccc3Nc3c([N+](=O)[O-])ccc1c32 : what was it?
label 0

* * *

- System: RPMI-8226
- assay: NCI tumour cell line growth inhibition, 48 h
Active and inactive are the calls of the source. Rule as the data show it: active = GI50 up to about 1.1 µM and inactive = higher.
Permitted responses: YES for active, NO for inactive

Illustrative cases are given below, each with its answer.
molecule | target or system | classification
O=C(CCc1cc(O)ccc1O)OCCc1ccccc1 | RPMI-8226 | YES
O=C(NC(=O)c1ccccc1[N+](=O)[O-])Nc1ccc(Oc2ncc(Cl)cn2)c([N+](=O)[O-])c1 | RPMI-8226 | YES
N=C(N)C1=C(O)NC(=O)N(C2CCCCC2)C1 | RPMI-8226 | NO
COc1cc(/C=N/c2ccccn2)cc(OC)c1OC | RPMI-8226 | NO
CCCNc1c(Cl)cc(Cl)c2[nH]c3ccccc3c(=O)c12 | RPMI-8226 | NO
C/N=c1/ssc(=S)n1C(C)C | RPMI-8226 | NO
Cc1ccc2cccc(-c3cccc4ccccc34)c2n1 | RPMI-8226 | NO
Cc1ccc(S(=O)(=O)NC(=O)Nc2nc[nH]n2)cc1 | RPMI-8226 | NO
CC1(C)C(O)OC(O)C1(C)C (stereo unspecified) | RPMI-8226 | NO
O.O=C([O-])c1ccccc1Nc1ccccc1C(=O)[O-].[Zn+2] | RPMI-8226 | NO

Then this molecule:
State the result this test recorded for CCOC(=O)C(NC(=O)CC)(Nc1ccccc1OC)C(F)(F)F (stereo unspecified) .
NO
